Data origin, for the record: patent US20140178394A1

# measured_target: T1, HLA-A*0201 HLA class I MHC monomer (iTopia Epitope Discovery System, coated on plate) (human)
# T1 construct: Placeholder peptide stripped; also called HLA-A2; MHC class I monomer
# protocol_summary: iTopia EDS affinity assay; peptide titration, printed as Affinity (ED50)
property_label: EC50

Quick one: EC50 for LVSASVVVV (Synthetic nonapeptide of human nectin4; the range counts on nectin4) [Nectin4 peptide 345 (LVSASVVVV)] ?
0.06 µM

Can you look up the measured EC50 of LLLLASFTG (Synthetic nonapeptide of human nectin4; the range counts on nectin4) [Nectin4 peptide 19 (LLLLASFTG)] for me?
0.06 µM

Give its EC50 value. Item: SASVVVVGV (Synthetic nonapeptide of human nectin4; the range counts on nectin4) [Nectin4 peptide 347 (SASVVVVGV)]
0.2 µM

Form field: reported EC50 of FLAEASVRG (Synthetic nonapeptide of human nectin4; the range counts on nectin4) [Nectin4 peptide 244 (FLAEASVRG)]
0.7 µM
